Observed pIC50 for UniProtKB O75116, reported per entry below.
Sequence (O75116 whole entry): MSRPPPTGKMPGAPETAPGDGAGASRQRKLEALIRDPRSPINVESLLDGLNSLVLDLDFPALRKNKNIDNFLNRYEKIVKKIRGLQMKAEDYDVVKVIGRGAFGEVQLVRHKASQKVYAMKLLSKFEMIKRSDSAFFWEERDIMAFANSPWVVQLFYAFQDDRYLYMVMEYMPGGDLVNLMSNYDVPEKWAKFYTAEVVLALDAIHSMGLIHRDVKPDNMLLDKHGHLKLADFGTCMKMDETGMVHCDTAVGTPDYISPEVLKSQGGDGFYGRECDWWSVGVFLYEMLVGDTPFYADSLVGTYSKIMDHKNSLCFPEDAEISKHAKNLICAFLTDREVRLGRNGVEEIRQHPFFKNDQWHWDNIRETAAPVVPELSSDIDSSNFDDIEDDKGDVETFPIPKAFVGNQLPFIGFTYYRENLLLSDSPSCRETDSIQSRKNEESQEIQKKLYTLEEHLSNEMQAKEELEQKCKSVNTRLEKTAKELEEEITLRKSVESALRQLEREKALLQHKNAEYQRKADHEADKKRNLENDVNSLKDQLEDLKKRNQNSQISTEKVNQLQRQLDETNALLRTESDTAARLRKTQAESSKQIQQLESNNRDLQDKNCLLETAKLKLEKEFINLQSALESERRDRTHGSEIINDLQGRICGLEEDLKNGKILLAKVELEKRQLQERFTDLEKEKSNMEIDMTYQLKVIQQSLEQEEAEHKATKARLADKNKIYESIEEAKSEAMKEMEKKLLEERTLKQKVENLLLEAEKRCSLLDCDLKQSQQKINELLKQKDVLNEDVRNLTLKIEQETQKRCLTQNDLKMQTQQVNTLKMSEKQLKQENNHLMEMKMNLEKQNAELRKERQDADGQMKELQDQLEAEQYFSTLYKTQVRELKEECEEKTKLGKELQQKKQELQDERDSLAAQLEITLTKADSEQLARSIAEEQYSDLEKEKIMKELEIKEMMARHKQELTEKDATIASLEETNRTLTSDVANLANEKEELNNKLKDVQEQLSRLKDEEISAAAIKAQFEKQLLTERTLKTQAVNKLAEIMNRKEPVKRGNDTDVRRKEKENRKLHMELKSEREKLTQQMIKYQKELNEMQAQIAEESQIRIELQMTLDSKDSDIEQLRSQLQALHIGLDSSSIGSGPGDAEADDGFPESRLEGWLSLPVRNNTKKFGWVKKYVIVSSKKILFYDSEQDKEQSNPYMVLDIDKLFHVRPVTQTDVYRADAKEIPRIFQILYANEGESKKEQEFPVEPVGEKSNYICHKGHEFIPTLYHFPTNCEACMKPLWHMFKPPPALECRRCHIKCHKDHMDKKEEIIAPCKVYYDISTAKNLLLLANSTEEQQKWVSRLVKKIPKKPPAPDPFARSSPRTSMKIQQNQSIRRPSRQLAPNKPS
pIC50: −log10 of the molar value.
readoutType: pIC50

INSERT INTO assay_data (compound, observedmeasurement) VALUES
  ('NC(=O)c1cccnc1OC1CC2(CC(Nc3nc4c(Cl)cccc4s3)C2)C1 (stereo not drawn)', 7.12),
  ('N#Cc1cnc(NC2CC3(C2)CC(Oc2ncccc2C(N)=O)C3)nc1 (stereo not drawn)', 5.82),
  ('COc1ccc2c(NC3CC4(C3)CC(Oc3ncccc3C(N)=O)C4)nccc2c1 (stereo not drawn)', 7.77);
